Target: T1, cyno CD39 on the cell surface (293T/17-cyno CD39 cells) (cyno, UniProt P49961 7-510 (human entry))
T1 construct: 293T/17 cells stably transfected with the cyno CD39 gene
T1 chain: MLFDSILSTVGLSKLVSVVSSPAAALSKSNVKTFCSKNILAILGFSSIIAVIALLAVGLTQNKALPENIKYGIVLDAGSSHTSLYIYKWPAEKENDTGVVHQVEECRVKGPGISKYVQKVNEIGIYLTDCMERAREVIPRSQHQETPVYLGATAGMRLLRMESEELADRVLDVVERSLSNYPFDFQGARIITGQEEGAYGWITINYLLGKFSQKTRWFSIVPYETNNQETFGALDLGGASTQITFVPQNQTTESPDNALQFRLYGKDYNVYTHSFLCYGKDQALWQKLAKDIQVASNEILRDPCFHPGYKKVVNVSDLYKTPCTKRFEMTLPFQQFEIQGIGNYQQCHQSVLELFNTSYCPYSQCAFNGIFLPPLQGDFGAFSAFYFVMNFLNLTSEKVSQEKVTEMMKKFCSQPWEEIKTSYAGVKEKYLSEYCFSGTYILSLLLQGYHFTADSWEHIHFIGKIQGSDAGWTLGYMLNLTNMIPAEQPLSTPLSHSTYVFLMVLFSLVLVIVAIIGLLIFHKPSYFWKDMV
Assay: flow cytometry on 293T/17-cyno CD39 cells
pEC50: −log10 of the molar value.
Reported pEC50 values are given for each entry in this list.

BINDER	pEC50
217 hIgG2 (antibody, V domains shown, Chimeric antibody: mouse Fv fused to the human IgG2 constant region) VH: EVQLVESGGGLVKPGGSLKLSCAASGFTFSDYGMHWVRQAPEKGLEWVAYISSGSSVIYYVDTVKGRFTISRDNAKNTLFLQMTSLRSEDTAMYYCARDLYYDHVLDSWGQGTTLTVSS VL: DIQMTQSPSSLSASLGERVSLTCRASQEIGGYLSWLQQKPDGTIKRLIYAASTLDSGVPKRFSGSRSGSDYSLTISSLESEDFADYYCLQYASYPRTFGGGTKLEIKR	8.02
216 hIgG2 (antibody, V domains shown, Chimeric antibody: mouse Fv fused to the human IgG2 constant region; also called chimeric antibody 216) VH: EVQLVESGGGLVKPGGSLKLPCAASGFTFSDYGMHWVRQAPEKGLEWVAYISSGSSIIYYADTVKGRFTISRDNAKNTLFLQMTSLRSEDTAMYYCARDLYYDHVLDYWGQGTTLTVAS VL: DIQMTQSPSSLSASLGERVSLTCRASQEISGYLIWLQQKPDGTIKRLIYAASTLDSGVPKRFSGNRSGSDYSLTISSLESEDFADYYCLQYASYPRTFGGGTKLEIKR	7.96
201 hIgG2 (antibody, V domains shown, Chimeric antibody: mouse Fv fused to the human IgG2 constant region, expressed in 293F cells; also called chimeric antibody 201) VH: EVQLVESGGGLVKPGGSLKLSCAASGFTFSDYGMHWVRQAPEKGLEWVAYISSGSSIMYYADTVKGRFTISRDNAKNTLFLQMASLRSEDTAMYYCARDLYYDHVLDYWGQGTTLTVSS VL: DIQMTQSPSSLSASLGERVSLTCRASQEIRGYLIWLQQKPGGTIKRLIYAASTLDSGVPKRFSGSRSGSDYSLTISSLESEDFADYYCLQYTSYPRTFGGGTKLEIKR	8.06
219 hIgG2 (antibody, V domains shown, Chimeric antibody: mouse Fv fused to the human IgG2 constant region; also called chimeric antibody 219) VH: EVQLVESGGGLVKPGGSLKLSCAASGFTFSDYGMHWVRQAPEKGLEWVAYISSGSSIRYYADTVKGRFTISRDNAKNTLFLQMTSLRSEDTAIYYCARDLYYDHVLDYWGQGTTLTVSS VL: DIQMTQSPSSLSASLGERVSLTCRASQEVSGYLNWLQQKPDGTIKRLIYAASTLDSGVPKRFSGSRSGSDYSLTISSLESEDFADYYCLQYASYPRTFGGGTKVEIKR	8.09
